Hello, the source for this data is paper PMC10421270, in case you need it.

# Target Desc: human recombinant MAO-A (Homo sapiens)
# Construct: purchased Sigma Aldrich (Milan, Italy); host or cells: baculovirus-infected insect cells
# Sequence (P21397 whole entry): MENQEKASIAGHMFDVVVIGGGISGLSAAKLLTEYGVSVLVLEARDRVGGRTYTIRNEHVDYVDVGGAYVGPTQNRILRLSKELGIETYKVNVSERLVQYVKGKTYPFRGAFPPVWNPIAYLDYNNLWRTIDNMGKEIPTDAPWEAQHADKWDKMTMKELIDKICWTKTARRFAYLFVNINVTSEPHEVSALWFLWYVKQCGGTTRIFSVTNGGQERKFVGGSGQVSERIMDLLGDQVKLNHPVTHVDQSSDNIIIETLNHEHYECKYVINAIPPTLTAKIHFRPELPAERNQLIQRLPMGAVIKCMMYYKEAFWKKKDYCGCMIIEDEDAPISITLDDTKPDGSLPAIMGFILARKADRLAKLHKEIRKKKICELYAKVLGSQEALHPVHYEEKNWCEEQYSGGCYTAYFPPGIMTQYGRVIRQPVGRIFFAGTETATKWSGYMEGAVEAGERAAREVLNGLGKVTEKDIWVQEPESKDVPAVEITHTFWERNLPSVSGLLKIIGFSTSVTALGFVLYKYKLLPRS
# Test: biochemical
# Measurement Conditions: read-out: MAO-A % inhibition at 10 μM; human MAO-A; 10 μM; values in parentheses
Assay Metric: inhibition at 10 µM (%)
One number for each entry, in %.

Examples with their reported inhibition at 10 µM follow.
Q) For the compound CCCCN(CCCC)Cc1ccc(C=C2Cc3cc(OC)ccc3C2=O)cc1 [E/Z-1d] , report inhibition at 10 µM.
A) 37

Q) For the compound CCCCN(C)Cc1ccc(C=C2Cc3cc(OC)ccc3C2=O)cc1 [E/Z-1e] , report inhibition at 10 µM.
A) 25

Q) For the compound COc1ccc2c(c1)CC(=Cc1ccc(CN(C)C)cc1)C2=O [E/Z-1b] , report inhibition at 10 µM.
A) 32

Q) For the compound CCCCN(C)Cc1ccc(/C=C2\Cc3cc(OC)ccc3C2=O)cc1 [Compound E-1e] , report inhibition at 10 µM.
A) 20

Q) For the compound COc1ccc2c(c1)C/C(=C\c1ccc(CN(C(C)C)C(C)C)cc1)C2=O [Compound E-1f] , report inhibition at 10 µM.
A) 22

Q) For the compound CCN(Cc1ccccc1)Cc1ccc(/C=C2\Cc3cc(OC)ccc3C2=O)cc1 [Compound E-1h] , report inhibition at 10 µM.
A) 13

Q) For the compound CCN(CC)Cc1ccc(/C=C2\Cc3cc(OC)ccc3C2=O)cc1 [Compound E-1a] , report inhibition at 10 µM.
A) 33

Q) For the compound CCN(Cc1ccccc1)Cc1ccc(C=C2Cc3cc(OC)ccc3C2=O)cc1 [E/Z-1h] , report inhibition at 10 µM.
A) 39

Turning now to a further record.
Q) For the compound COc1ccc2c(c1)C/C(=C\c1ccc(CN(C)C)cc1)C2=O [Compound E-1b] , report inhibition at 10 µM.
A) 33
